experiment: amyloid nucleation score (Sup35N fusion, yeast selection) (log enrichment); library NNK2; higher = more nucleation; inactive = no reads after selection;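 also: zero at mode of non-aggregating sequences after 7 days selection at 30°C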
quantityKind: amyloid nucleation score

Worked set:
Complete the entry with amyloid nucleation score for `CFKLTNINAL`
inactive

Input `GLSWPTNRCRRALMESTSAP` , output reported amyloid nucleation score.
inactive

Assign amyloid nucleation score to the following record: `LDYFNYCSSLGFHMVSVVYV`
inactive

Item `DHAYYDTSCGIRTPFVMIVR` : provide amyloid nucleation score
inactive

Identify amyloid nucleation score associated with the sequence `IRCGREGLRR`
inactive

Next:
Determine from records and report amyloid nucleation score for `YQMISDSPNINIFYGFYSET`
inactive

Look up amyloid nucleation score of `IGGLISLGISSIERGYSSLI` and report it.
inactive

---

experiment: amyloid nucleation score (Sup35N fusion, yeast selection) (log enrichment); library NNK2; higher = more nucleation; inactive = no reads after selection
quantityKind: amyloid nucleation score

Name the recorded amyloid nucleation score of the substance listed here: `LGHILV`
inactive

Indicate its recorded amyloid nucleation score; the substance in question is `QYRCGRRLVQRSEVVIVPVC`
inactive

Name the recorded amyloid nucleation score of the substance listed here: `CSVCYFPEGNLFNGE`
inactive

---

substances and their reported amyloid nucleation score
test: amyloid nucleation score (Sup35N fusion, yeast selection) (log enrichment); library NNK2; higher = more nucleation; inactive = no reads after selection
Returns: the value as a bare number; no unit string appended.

Provide amyloid nucleation score value for the following substance: `PISWGRLFNMVPR`
-0.98

Give me measured amyloid nucleation score, please, for this substance: `IDLTHECVRVWVDSKLLSPF`
-0.742

Complete the entry with amyloid nucleation score for `RYSITGTYYIA`
3.63

---
Return value of amyloid nucleation score for input `YVEFCFLTCSASGLAWSLRW` , no commentary.
0.053

For `HVYPVWFCWLYSFRLHYSQV` , write its amyloid nucleation score.
-0.149

Give reported amyloid nucleation score value for `SVNYMAFWKVPTCGLQGGKG`
-0.097

---

experiment: amyloid nucleation score (Sup35N fusion, yeast selection) (log enrichment); library NNK3; higher = more nucleation; inactive = no reads after selection
quantityKind: amyloid nucleation score

Would you please look over these solved cases?
Complete the entry with amyloid nucleation score for `HFSKHTVTNRPYDVHNLGKC`
inactive

Identify amyloid nucleation score associated with the substance `NRMNKSEDGTSKCFESDRWG`
inactive

Supply amyloid nucleation score value. Item: `DSCKIYGG`
inactive

// Input: `DLSPRYL` . Output its amyloid nucleation score only.
inactive

Identify the reported amyloid nucleation score for the following entry. `LYEAVDRGLSRR`
inactive

Look up amyloid nucleation score of `ISWYVWRVMYMSCGWSIVFR` and report it.
inactive

Give recorded amyloid nucleation score. `GANKVSNRRVMSSDPTSQCL`
inactive

// fetch amyloid nucleation score given entry `FVGVYKMGFASCSMSGSGWV`
inactive

Provide only the value of recorded amyloid nucleation score for `SVYCSCISFGPTSKILVIMD`
2.34

Specify measured amyloid nucleation score for `TCTAFQMHI` .
0.007

Next:
Look up amyloid nucleation score of `FLILSNEIMPLFTWANKRLE` and report it.
inactive

Identify measured amyloid nucleation score corresponding to `TGFYDCNLGLDLCIAIWVCS`
-0.156

Tell me measured amyloid nucleation score for `VNYSLLRVNMFKYGSSYPIP` please.
inactive

Identify measured amyloid nucleation score associated with `QSSMLHL`
inactive

Give a short answer stating reported amyloid nucleation score for `VMTVVRKSSSSVVAISWISE` .
0.392

Give amyloid nucleation score for the following substance: `SETHLLQGDISVVMVLSAN`
inactive

---

experiment: amyloid nucleation score (Sup35N fusion, yeast selection) (log enrichment); library NNK3; higher = more nucleation; inactive = no reads after selection
quantityKind: amyloid nucleation score

Worked set:
Output measured amyloid nucleation score for this item: `CKLNICRNVEETTIFRLGDV`
1.39

# return recorded amyloid nucleation score for input `WHSMSCFSPKLGWDQFPVLR`
inactive

Determine from records and report amyloid nucleation score for `MGPWCRKWIICLTRVSYRVG`
inactive

Provide only the value of recorded amyloid nucleation score for `STIKFTGFVYFSN`
inactive

Report measured amyloid nucleation score; entry is `KLYIALMDKYPGATSMFQPV`
1.18

Tell me amyloid nucleation score reported for `MLSVPDVVRFWMFKFYKFSW`
inactive

Let me know recorded amyloid nucleation score for `LVAFATWYNGWWVPRENEFR` , thanks.
0.033

Please give measured amyloid nucleation score of the following entry: `TPFTFGCHRLLQHKYCNSDV`
inactive

Continuing:
Fill in amyloid nucleation score for record `NTYRMMKGLSPVFMKMLCTP`
inactive

Specify reported amyloid nucleation score for the substance shown: `QQHAVR`
inactive

Please look at this substance and report its amyloid nucleation score: `ALSGSGLRLTPMKQ`
inactive

Name the recorded amyloid nucleation score of the item `ELRLMGFRGALDACLSLHPI` in your answer.
inactive

Give a short answer stating reported amyloid nucleation score for `SDCCGRNHVPEGVLWSQFNY` .
inactive

Answer with the recorded amyloid nucleation score of `NVQSSGSRGAR` only.
inactive

---

test: amyloid nucleation score (Sup35N fusion, yeast selection) (log enrichment); library NNK3; higher = more nucleation; inactive = no reads after selection
quantityKind: amyloid nucleation score

Identify amyloid nucleation score associated with the sequence `MKNRYLNRCTLVANAFGLKE`
inactive

Report measured amyloid nucleation score; entry is `CYWIASRLFTKLSNYLSISG`
inactive

Return amyloid nucleation score (reported value) for this sequence: `FWKKLWNSSF`
inactive

---

experiment: amyloid nucleation score (Sup35N fusion, yeast selection) (log enrichment); library NNK3; higher = more nucleation; inactive = no reads after selection
quantityKind: amyloid nucleation score

Find the measured amyloid nucleation score of `FYWSFIRLFRS` and report it.
inactive

Please list amyloid nucleation score recorded for the sequence `AVYLGGGHKSCRRSRRWLVS`
inactive

Look up and report measured amyloid nucleation score for this entry: `VMIFSCYSAYYPNLISHSRW`
inactive

---

assay: amyloid nucleation score (Sup35N fusion, yeast selection) (log enrichment); library NNK1; higher = more nucleation; inactive = no reads after selection
Parameter threshold = 0.7. Response is met when amyloid nucleation score meets or exceeds it, else not met.

Examples with answers:
Please check the record `STWFSFTFLWLMSRGVNQNF` and state if its amyloid nucleation score is at or above 0.7.
met

Can `LVMSTRLQTCCWLNVNVGWV` be said to have amyloid nucleation score at or above 0.7?
met

More entries:
Given `SFSYLIFTTVLLVWW` , state whether its amyloid nucleation score is at least 0.7.
not met

Given the entry `TRTKSGFSLYVRR` , answer whether its amyloid nucleation score meets or surpasses 0.7.
met

Please tell me: is the substance `LFHQLRITSVLSYDDKCEAR` at or over 0.7 in terms of amyloid nucleation score?
not met

Has `YDGPLFVTFILI` a recorded amyloid nucleation score greater than or equal to 0.7?
met

Determine whether this substance has amyloid nucleation score no lower than 0.7: `LRAIRE`
not met

Does `NLFVSYSTDNSSTFMWDSVR` have a reported amyloid nucleation score of at least 0.7?
met

Check this substance for amyloid nucleation score at or above 0.7: `FRVMNRGAFYMRFKLG`
met

# check: amyloid nucleation score of `RTFHYAVNINRWLNKECGLH` is greater than or equal to 0.7
not met

---

test: amyloid nucleation score (Sup35N fusion, yeast selection) (log enrichment); library NNK2; higher = more nucleation; inactive = no reads after selection
quantityKind: amyloid nucleation score
Give the figure only, with no unit attached.

Some solved entries appear below for comparison.
Using the record for `YLIISMRFISSTQYRFFSVH` , state its measured amyloid nucleation score.
0.498

Given the substance `WVSGLPHNYNSSFSTAINFS` , write its reported amyloid nucleation score.
0.907

Read the entry `RSHPKMMSDICSV` and write its reported amyloid nucleation score.
0.178

For the substance `WSHVYSV` , give its measured amyloid nucleation score value.
-0.124

Assign amyloid nucleation score to the following record: `AWCFSWHQKLLAR`
0.471

Now turn to the next substance.
Input `SCIMECM` , output reported amyloid nucleation score.
-0.108

---

assay: amyloid nucleation score (Sup35N fusion, yeast selection) (log enrichment); library NNK3; higher = more nucleation; inactive = no reads after selection
quantityKind: amyloid nucleation score

For the substance `NWGSYSMDMRSCSGINRRP` , give its measured amyloid nucleation score value.
inactive

Please report amyloid nucleation score for the following substance: `VHLSWFSIIVRVDEGDWARR`
-0.839

Look up amyloid nucleation score of `ATPKPKGHY` and report it.
inactive

Input `FSLHQSNTLRPWDLIPATW` , output reported amyloid nucleation score.
inactive

Indicate the recorded amyloid nucleation score value for this substance: `VFETEKLSHFKCEVLDCQ`
inactive

More entries:
Using known records, supply amyloid nucleation score for `HIFHQIKANDHAIFLGNVSG`
inactive

Return reported amyloid nucleation score. Input substance: `STQTLEKNDVWGFLHSYWCR`
0.128

---

assay: amyloid nucleation score (Sup35N fusion, yeast selection) (log enrichment); library NNK1; higher = more nucleation; inactive = no reads after selection
quantityKind: amyloid nucleation score
Form: value (number only, do not type unit).

Report amyloid nucleation score, nothing else, for this substance: `VLHFHVDDMDYNFFSW`
0.578

Give reported amyloid nucleation score value for `MWSLDGTKICNLRKVFGRSC`
0.809

Consider the substance `FENDWNLINLLGF` and give its recorded amyloid nucleation score.
1.49

Supply recorded amyloid nucleation score for `WVRLINSGGQSYFRCGEGRS` here.
0.654

Return amyloid nucleation score for the following substance: `KKDTDRSIVFVSLYSPDSKA`
-0.064

Next:
Consider the substance `FYDPALMSITNSD` and give its recorded amyloid nucleation score.
1.73

Give the reported amyloid nucleation score for this substance. `WENLKVSNYDLYSVLPLYGP`
0.381

Give amyloid nucleation score for the following substance: `GMSSRMPQLNSWEPRGGDSG`
-0.144
